Ref: PubChem BioAssay AID493131

Exercise: state measured activation for each of the compounds provided.
Test system: Protein FosB (Mus musculus) (UniProt P13346)
Sequence (P13346 whole entry, looked up): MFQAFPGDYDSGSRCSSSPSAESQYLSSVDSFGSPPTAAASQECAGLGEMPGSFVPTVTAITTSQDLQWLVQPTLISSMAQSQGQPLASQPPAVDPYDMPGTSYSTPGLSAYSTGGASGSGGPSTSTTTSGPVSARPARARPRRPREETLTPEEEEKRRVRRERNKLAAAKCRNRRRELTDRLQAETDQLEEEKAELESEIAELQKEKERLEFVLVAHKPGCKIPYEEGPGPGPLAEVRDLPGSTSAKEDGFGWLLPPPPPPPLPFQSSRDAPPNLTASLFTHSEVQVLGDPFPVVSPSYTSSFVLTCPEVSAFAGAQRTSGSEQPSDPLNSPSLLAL
Assay summary: activators of delta FosB homodimer, primary screen, biochemical, fluorescence polarization, TAMRA-CDK5 oligo, single point (AID 493131);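 note: fluorescence polarization rise as delta FosB binds a TAMRA Cdk5 AP-1 oligo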
Condition set: purified delta FosB, at 25 µM, stronger effect = higher value, percent of positive-control signal above neutral wells
Hit rate of the full screen: of about 340,000 compounds, about 3,300 (0.97%) were called active. The sample as a whole holds a higher share of actives than the screen did.

Respond only with activation recorded for `N#CC(C#N)=CN=c1ccn(Cc2ccc(Cl)cc2Cl)cc1`
-0.0405% (inactive)

Fill in activation for record `COc1cccc(-c2cc3nc4c(c(N5CCC6(CC5)OCCO6)n3n2)CCCC4)c1`
-1.84% (inactive)

Output measured activation for this item: `Cc1n[nH]c(=O)c2c1nnn2Cc1ccc(F)cc1`
0.186% (inactive)

Find the measured activation of `CCC(=O)Nc1ccc2nc(C)n(Cc3ccccc3Cl)c(=O)c2c1` and report it.
-9.12% (inactive)

Determine its reported activation: `COc1ccc(-n2c(SCC(=O)Nc3sc4c(c3C#N)CCCC4)nnc2-c2ccc(O)cc2)cc1`
23.1% (active)

Given `CC(C)CCNC(=O)c1ccc2c(Cl)c3c(nc2c1)CCC3` , respond with its activation.
-19.8% (inactive)

Indicate the recorded activation value for this compound: `Cn1c(=O)oc2cc(S(=O)(=O)N3CCC(C(=O)Nc4ccc(OC(F)(F)F)cc4)CC3)ccc21`
32.2% (active)

Provide activation value for the following compound: COc1ccc(-c2cc(=O)oc3cc(OC(C)C(=O)NCC4CCC(C(=O)O)CC4)ccc23)cc1 (stereo not given)
2.8% (inactive)

Provide only the value of recorded activation for `O=C(COc1coc(CN2CCN(c3ccccc3F)CC2)cc1=O)N1CCc2ccccc21`
21.9% (active)

Determine its reported activation: `COc1ccc(NC(=O)C2CCN(S(=O)(=O)c3ccc4[nH]c(=O)oc4c3)CC2)c(OC)c1`
1.87% (inactive)

Given the compound `O=C(CSCc1ccc([N+](=O)[O-])cc1)Nc1cccc(C(=O)Nc2ccccc2C(=O)O)c1` , write its reported activation.
-3.8% (inactive)

Provide one value: measured activation of `CCn1nc(C)c(NC(=O)/C=C/c2ccc(OC)c(COc3ccc(Br)cc3)c2)c1C`
13.3% (inactive)

Provide activation value for the following compound: `CCCCNC(=S)N/N=C1\CCCCc2ccccc21`
-5.41% (inactive)

Tell us which activation value is on record for `COc1ccc(CCN(C)C(=O)C23CC4CC(CC(Cl)(C4)C2)C3)cc1OC`
-11.5% (inactive)

Name the recorded activation of the item `COc1ccc(C(=O)Nc2c(N)nc(SCC(=O)N3CCC(C)CC3)[nH]c2=O)cc1OC` in your answer.
-3.09% (inactive)

Supply recorded activation for CCc1ccc(CNC(=O)C2CC(=O)N(CCc3ccc(C)cc3)C2)cc1 (stereo not given) here.
-3.6% (inactive)

Return the recorded activation value; entry: `COc1ccc(NC(=O)CSc2nc(N)c(-c3ccccc3)c(=O)[nH]2)cc1`
-6.21% (inactive)

For the compound `CCOc1cc(NC(=O)c2ccccc2C(=O)O)c(OCC)cc1NC(=O)c1ccccc1F` , report activation.
-3.46% (inactive)

Tell us which activation value is on record for Cc1cccc(C)c1NC(=O)C1(C)c2cccc[n+]2CC(=O)N1Cc1cccs1 (stereo not given)
-6.06% (inactive)

Consider the compound `CCc1ccc(CNC(=O)C2CCN(c3nnc(C)c4c(C)n(-c5ccc(C)cc5)nc34)CC2)cc1` and give its recorded activation.
82.7% (active)

For `Cc1ccsc1C(=O)NNC(=O)COc1ccc(Br)cc1` , write its activation.
-0.652% (inactive)

Query activation for Cc1ccc2c(c1)C1CN(C)CCC1N2S(=O)(=O)c1ccc(Oc2ccc([N+](=O)[O-])cc2)cc1 (stereo not given)
60.9% (active)

Report activation, nothing else, for this compound: `O=C(Nc1ccc(S(=O)(=O)N2CCOCC2)cc1)C1CCN(S(=O)(=O)c2ccc(Cl)cc2)CC1`
-7.05% (inactive)

Give the reported activation for this compound. `NC(=O)c1cc(S(=O)(=O)N2CCCC2)ccc1OCc1ccc(F)cc1`
-1.72% (inactive)

Specify reported activation for the compound shown: `O=C(COC(=O)CNS(=O)(=O)c1ccc(F)c(F)c1F)NC1CCCC1`
0.263% (inactive)

Consider the compound `Cc1ccc(S(=O)(=O)N2CCN(C(=O)COC(=O)c3c(C)cc(C)cc3C)CC2)c(C)c1` . State its measured activation.
-5.88% (inactive)

Give activation for the following compound: Cc1ccc2c(c1)C1CN(C)CCC1N2C(=S)Nc1ccc(OC(F)F)cc1 (stereo not given)
-5.28% (inactive)

Kindly indicate its recorded activation. Item: `CCCc1cc(=O)[nH]c(SCC(=O)Nc2sc3c(c2C#N)CCCC3)n1`
-10.9% (inactive)

Respond only with activation recorded for `CCN1CCN(c2cc3nc(C)n(Cc4ccccc4)c(=O)c3cc2NC(=O)c2ccccc2F)CC1`
27.5% (active)

Specify reported activation for the compound shown: CCOc1ccc(CNC(=O)C2CCCN(c3nnc(C)c4c(C)n(-c5ccccc5)nc34)C2)cc1 (stereo not given)
-5.11% (inactive)

Using the record for `Cc1oc(-c2cccc(Cl)c2)[n+]([O-])c1C` , state its measured activation.
7.9% (inactive)

Dear colleague, please send me the reported activation for CC(C)C(OC(=O)c1cccs1)C(=O)NC1CCCCC1 (stereo not given) when you can.
0.731% (inactive)

Read off the recorded activation for `O=C(COc1coc(CN2CCN(c3ccccc3)CC2)cc1=O)Nc1ccccc1F`
-11.2% (inactive)

State its activation: `Cc1ccc(C)c(N2CCN(S(=O)(=O)c3ccc4c(c3)oc(=O)n4C)CC2)c1`
-5.87% (inactive)

Tell us which activation value is on record for `NC(=O)c1nnsc1-c1ccc(-c2snnc2C(N)=O)cc1`
12.3% (inactive)

Respond only with activation recorded for Cc1cc(=O)oc2cc(OC(C)C(=O)Nc3ccc(N4CCOCC4)cc3)ccc12 (stereo not given)
14.2% (inactive)

Please give measured activation of the following entry: `O=C(NC1CCCCC1)n1c(=O)oc2cc(S(=O)(=O)N3CCCCC3)ccc21`
3.88% (inactive)

Annotate the compound `COc1ccc(/C=C/C(=O)OCC(=O)N2CCN(S(=O)(=O)c3ccc(C)cc3C)CC2)cc1OC` with its measured activation.
19.8% (active)

Find the measured activation of CC(=O)NC(Cc1ccc(F)c(F)c1)C(=O)NC1CCN(c2nnnn2-c2ccccc2)CC1 (stereo not given) and report it.
-5.56% (inactive)

Read the entry `O=C(O)c1ccccc1C(=O)NC1=NN(c2ccccc2)CC1` and write its reported activation.
-3.52% (inactive)
